Hey, just so you know, these numbers are from ChEMBL document CHEMBL2390944.

Assay: in vivo
Conditions: rat, iv, 0.5 mg/kg
measured.metric: clearance (mL/min/kg)
Express the result in mL/min/kg but write the number alone.

Input line: Entry `N#Cc1c(C(F)(F)F)cc(C2CC2)nc1Oc1cccc(NS(=O)(=O)c2ccc(Cl)cc2)c1` needs its clearance filled in; supply it.
Output line: 3.17
